Provenance of the data: patent US20240067944A1

target: human plasma-derived FX (Haematologic Technologies Inc, USA) (human, UniProt P00742 41-179; P00742 183-488); experiment: cell-based or functional assay
Sequence (P00742 41-179, chain 1 of 2): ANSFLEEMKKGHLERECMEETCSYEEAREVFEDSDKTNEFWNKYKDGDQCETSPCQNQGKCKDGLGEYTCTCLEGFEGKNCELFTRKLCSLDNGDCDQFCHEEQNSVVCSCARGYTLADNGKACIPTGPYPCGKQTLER
Sequence (P00742 183-488, chain 2 of 2): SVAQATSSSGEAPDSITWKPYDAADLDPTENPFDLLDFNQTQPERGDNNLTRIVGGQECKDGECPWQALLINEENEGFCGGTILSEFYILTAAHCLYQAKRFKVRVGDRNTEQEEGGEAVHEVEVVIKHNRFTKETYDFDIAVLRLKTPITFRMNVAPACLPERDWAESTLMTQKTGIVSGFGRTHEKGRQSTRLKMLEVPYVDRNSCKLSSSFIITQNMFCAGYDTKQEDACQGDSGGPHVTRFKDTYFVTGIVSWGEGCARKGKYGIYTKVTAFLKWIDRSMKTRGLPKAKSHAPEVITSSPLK
Quantity measured: kcat/KM (1/(min * nM)) of FX activation by 0.1 nM FIXa with 5 nM compound (M⁻¹ s⁻¹)
Give just the number in M⁻¹ s⁻¹; leave the unit off.

Cmpd #19 (anti-FX/anti-FIX(a) VHH polypeptide derivative) (bispecific antibody, C16 diacid protractor (P2) via linker LP1 on Cys4 and Cys6 in C-term extension (SEQ ID NO :9)) DVQLVESGGGVVQPGGSLQLSCAASGGTKSRYAMGWFRQAPGQEREWVAAISRRGGSTNYADSVKGRFTISRDNSKNTVYLQMDSLRPEDTALYYCAADDSVGDGYLDYWGQGTLVTVSSGQAPGQEVQLVESGGGVVQPGGSLQLSCAASGRTFNIYTMSWFRQAPGQEREFVAGLRWTDSSTEYADSVKGRFTISRDNSKNTVYLQMDSLRPEDTALYYCAADRSFLFAQALGATKNYEYWGQGTLVTVSSGQACPC	5e+06

Item under review: Cmpd #21 (anti-FX/anti-FIX(a) VHH polypeptide derivative) (bispecific antibody, C16 diacid protractor (P2) via linker LP1 on Cys4 and Cys6 in C-term extension (SEQ ID NO: 9)) DVQLVESGGGVVQPGGSLQLSCAASGGTKSRYAMGWFRQAPGQEREFVAAISRRGGSTNYADSVKGRFTISRDNSKNTVYLDMDDLRPEDTALYYCAADDSVGDGYLDYWGQGTLVTVSSGQAPGQEVQLVESGGGVVQPGGSLQLSCAASGRTFNIYTMSWFRQDPGQEREFVAGLRWTDSSTEYADSVKGRFTISRDNSKNTVYLQMDSLRPEDTALYYCAADRSFLFAQALGATKNYEYWGQGTLVTVSSGQACPC . Reported kcat/KM (1/(min * nM)) of FX activation by 0.1 nM FIXa with 5 nM compound? 4.5e+06
